These data points were gathered from PubChem BioAssay.

System tested: Tumor necrosis factor receptor superfamily member 10B (Homo sapiens) (UniProt O14763)
Sequence (O14763 whole entry, looked up): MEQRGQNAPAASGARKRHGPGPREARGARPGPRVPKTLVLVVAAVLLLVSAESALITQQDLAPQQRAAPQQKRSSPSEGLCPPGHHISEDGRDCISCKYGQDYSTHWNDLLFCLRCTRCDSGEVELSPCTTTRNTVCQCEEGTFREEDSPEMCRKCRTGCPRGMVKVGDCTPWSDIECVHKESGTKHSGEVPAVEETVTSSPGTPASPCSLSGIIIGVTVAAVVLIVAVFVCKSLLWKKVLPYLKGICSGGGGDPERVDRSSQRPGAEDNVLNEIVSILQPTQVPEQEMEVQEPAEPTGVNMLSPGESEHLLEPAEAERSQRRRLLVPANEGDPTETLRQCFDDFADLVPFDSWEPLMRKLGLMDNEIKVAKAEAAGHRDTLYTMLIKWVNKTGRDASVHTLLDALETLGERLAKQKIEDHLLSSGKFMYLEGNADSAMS
Procedure text: TRAIL sensitizers in caspase-8 expressing neuroblastoma cells, dose response, NB7 cells plus caspase-8, luminescence, panel (AID 652002)
Assay context: NB7 neuroblastoma +caspase-8, TRAIL sensitization, luminescence viability, NB7+Caspase-8, with TRAIL, run 2; at 12.5 µM (top of the series)
So basically: is activity, % sensitization under 40%? Then 1 (yes). Not under? Then 0 (no).

Ask | Below 40% on activity, % sensitization? Entry COC(=O)c1ccc(/C=C(\C#N)c2ccccn2)cc1
Reply | 1 (yes)

Ask | # iterate: Cc1ccc2c(c1)-c1nc3ccccc3cc1C2=NC1CCCCC1
Reply | 0 (no)

Ask | # iterate: COc1cccc(NC(=O)c2ccc3c(c2)OCO3)c1
Reply | 0 (no)

Ask | # iterate: COc1ccc(-c2cc(C(=O)OCC(=O)Nc3ccc4c(c3)OCO4)c3ccccc3n2)cc1
Reply | 0 (no)

Ask | # iterate: Cc1c(P(=S)(c2ccccc2)c2ccccc2)[n+]2ccccc2n1CCc1ccccc1
Reply | 1 (yes)

Ask | # iterate: O=c1cc(-c2ccccc2)nc2cc(-c3ccc(F)cc3)[nH]n12
Reply | 1 (yes)

Ask | # iterate: Cc1nc(Cl)c2oc3ccccc3c2n1
Reply | 1 (yes)

Ask | # iterate: Cc1ccc2c(c1)C(=NC1CCCCC1)c1cc3ccccc3nc1-2
Reply | 1 (yes)

---

Procedure text: caspase-8 TRAIL sensitization, hit retest, confirmation, cell-based, NB7+caspase-8, with/without TRAIL, luminescence panel (AID 651596)
Assay context: NB7 neuroblastoma + caspase-8, without TRAIL, luminescence viability, without TRAIL, mean of runs, at 10 µM
Consider the following compounds and their measured activity readings.
Give just the numeric value; % need not be written.

COc1ccc(C(=O)Nc2cccc(/C=C/c3nc4ccccc4c(=O)[nH]3)c2)cc1; 60.9

Ask | State the recorded activity for this entry: O=c1c2sc(-c3ccccc3)cc2nc2n1CCC2
Reply | 50

Ask | # iterate: c1ccc2[nH]c(-c3ccc4c(c3)OCO4)nc2c1
Reply | 79.3

Ask | # iterate: CCC(=O)Nc1ccc(NC(=O)c2ccco2)cc1
Reply | 41.4

Ask | # iterate: COc1ccccc1/C=C/C1(C(=O)NC2CCCC2)CC(=O)N1c1ccc(F)cc1 (stereo unspecified)
Reply | 98.1

Ask | # iterate: CCOc1ccc(OCC(=O)Nc2cccc(S(=O)(=O)NC3=NCCC3)c2)cc1
Reply | 64.6

---

System tested: Sentrin-specific protease 6 (Homo sapiens)
Procedure text: SENP6 protease inhibitors, confirmation, biochemical, luminescence, single concentration (AID 488915)
Assay context: recombinant SENP6, Z-RLRGG-aminoluciferin luminescence; at 12.5 µM; stronger effect = higher value
Some of the results follow.
Property name: inhibition (%)
Give just the numeric value; % need not be written.

Here are 5 compounds together with their reported answers.
O=C(Nc1cccc2ccccc12)c1onc2c1CCCC2; 75
COc1ccccc1OCc1nc2ccccc2s1; 97.3
O=c1c2ccccc2ncn1/N=C/c1ccccc1; 80.2
Cc1nn2cc(-c3ccc(Cl)cc3)cnc2c1Br; 15.7
O=C1/C(=C/c2cccs2)CCC1C1CCCC1 (stereo not drawn); 52.1

Ask | State the recorded inhibition for this entry: Cc1cnc(NC(=O)c2ccccn2)s1
Reply | 75.6

Ask | # iterate: CC1=NN(C(N)=S)C(=O)C1N=Nc1cc(Cl)ccc1Cl (stereo not drawn)
Reply | -1.7

Ask | # iterate: Cc1ccccc1Nc1nc(-c2cccnc2)cs1
Reply | 66.9
